The values you see were collected from patent US6242439A.

- system name: UniProt P16753
- Sequence (P16753 1-256): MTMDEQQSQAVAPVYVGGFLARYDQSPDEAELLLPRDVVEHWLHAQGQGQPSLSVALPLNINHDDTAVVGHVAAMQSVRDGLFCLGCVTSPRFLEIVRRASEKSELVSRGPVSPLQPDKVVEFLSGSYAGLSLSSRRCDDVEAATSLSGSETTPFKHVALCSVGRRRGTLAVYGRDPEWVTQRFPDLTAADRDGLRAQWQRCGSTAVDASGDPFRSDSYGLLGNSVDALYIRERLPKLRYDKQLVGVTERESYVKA
pIC50: −log10 of the molar value.
measured property: pIC50

{"columns": ["molecule", "measured property", "observed measurement"],
 "data": [
  ["CN(Cc1ccc(C(F)(F)F)cc1)C(=O)N1C(=O)C[C@@H]1Cc1cccs1", "pIC50", 5.35],
  ["CN(Cc1ccc([N+](=O)[O-])cc1)C(=O)N1C(=O)C[C@@H]1Cc1ccco1", "pIC50", 5.51],
  ["O=C1C[C@H](Cc2ccccc2)N1C(=O)NCc1ccccn1", "pIC50", 4.48],
  ["Cc1ccc(NC(=O)N2C(=O)C[C@@H]2Cc2ccccc2)cc1", "pIC50", 5.28],
  ["CCC(c1ccccc1)N(C)C(=O)N1C(=O)CC1Cc1ccccc1 (stereo not drawn)", "pIC50", 4.52],
  ["CN(Cc1ccc(C(F)(F)F)cc1)C(=O)N1C(=O)C[C@@H]1Cc1ncoc1-c1ccccc1", "pIC50", 4.85],
  ["O=C1C[C@H](Cc2ccccc2)N1C(=O)NCc1cccnc1", "pIC50", 5.01],
  ["CC[C@@H](NC(=O)N1C(=O)[C@@H](SC)[C@@H]1Cc1ccccc1)c1ccccc1", "pIC50", 5.33],
  ["O=C1C[C@H](Cc2ccccc2)N1C(=O)NCc1ccccc1", "pIC50", 5.05]
]}
